- tested-system: T1, L-selectin (LS-Rg) (Homo sapiens, UniProt P14151 P14151:39-332)
- T1 chain: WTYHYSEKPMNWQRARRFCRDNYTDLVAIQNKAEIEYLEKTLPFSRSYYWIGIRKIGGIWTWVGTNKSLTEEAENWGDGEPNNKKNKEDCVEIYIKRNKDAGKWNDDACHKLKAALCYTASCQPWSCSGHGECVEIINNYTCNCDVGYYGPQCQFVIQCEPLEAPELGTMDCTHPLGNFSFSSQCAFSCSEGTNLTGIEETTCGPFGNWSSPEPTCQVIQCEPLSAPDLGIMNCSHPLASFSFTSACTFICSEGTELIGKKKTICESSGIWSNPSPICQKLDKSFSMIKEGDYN
- assay: filter; 4 C, HSMC; 15.9 nM at room temp
- test-settings: tags: human IgG2 Fc fusion (provided by A. Varki); label: 32P; hairpin
observation-type: Kd (nM)
Unit nM implied. Number only.

Lookup: Endpoint output: Kd of F14.21 (ssRNA, 2'-NH2 all C and U) RNA: GGGAGGACGAUGCGGUUGAGAUGUGUGAGUACAAGCUCAAAAUCCCGUUGGAGGCAGACGACUCGCCCGA . Value?
Found: 2.3
